Target: von Willebrand factor (VWF) (Homo sapiens, UniProt P04275 P04275:764-2813)
Assay: filter; Bmax 67%; 2 mM CaCl2, 37 C
Conditions: tags: factor VIII free, Haematologic Technologies Inc; label: 5'-32P
Item-by-item account of Kd
Reply numerically in nM, unit not repeated.

Query string: Recorded Kd for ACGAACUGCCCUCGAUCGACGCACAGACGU (ssRNA, mAmCmGmAmAmCmUmGfCfCfCmUmCmGmAmUmCmGmAfCrGfCmAmCmAmGmAmCmGmUidT) [DTRI-008] , please?
Result string: 7

Continuing:
Query string: Recorded Kd for ACGAACUGCCCUCAGCUACUUUCAUGUUGCUGACGCACAGACGU (ssRNA, rAfCrGmAmAmCfUrGfCfCfCfUfCrArGfCfUrAfCfUfUfUfCrAfUrGfUfUrGfCfUrGrAfCrGfCrAmCmAmGmAfCrGfU-idT) [T25 vrt6] , please?
Result string: 3.1
